- Test system: JAK1-dependent STAT6 phosphorylation in BEAS-2B human bronchial epithelial cells
- Test summary: JAK1 pathway assay: IL-13 stimulated STAT6 phosphorylation in BEAS-2B cells
- Assay type: cell-based
- Condition parameters: Homo sapiens, BEAS-2B, BEAS-2B cells, IL-13 stimulation; read-out: IL-13 p-STAT6 BEAS-2B IC50
Readout: pIC50
A value of pIC50 is the negative decimal logarithm of a concentration given in moles per litre.

O=C(Nc1cn(CC(=O)N2CCNCC2)nc1-c1cc2ccccc2cc1OC(F)F)c1cnn2cccnc12 [Example 71]: 7.11

Give its pIC50 value. Item: CN(C)CCn1cc(NC(=O)c2cnn3cccnc23)c(-c2cc3c(cc2OC(F)F)NCCS3)n1 [Example 82]
8.15

Give its pIC50 value. Item: O=C(Nc1cn(Cc2ncco2)nc1-c1cc2c(cc1OC(F)F)NCCO2)c1cnn2cccnc12 [Example 123]
7.62

Give its pIC50 value. Item: CNCCn1cc(NC(=O)c2cnn3cccnc23)c(-c2cc3c(cc2OC(F)F)NC(=O)CS3)n1 [Example 79]
7.01

Give its pIC50 value. Item: N#CCn1cc(NC(=O)c2cnn3cccnc23)c(-c2cc3c(cc2OC(F)F)NCCS3)n1 [Example 140]
8.40
